assay: Counterscreen for APE1 Inhibitors: Fluorescent Dye Displacement Validation Assay (AID 1707); conditions: fluorescent dye displacement from DNA; series mostly up to 57.1 µM
Inconclusive results are not listed. The source made the active and inactive calls. The call rests on the fitted dose curve; in most records, active means well fitted inhibition curve with a large enough effect; inconclusive means small, poorly fitted or top-dose-only effect; inactive means no such curve, though single readings can be large or run the other way.
Readout name: outcome

{"columns": ["Compound", "Readout name", "Readout value"],
 "data": [
  ["COc1cccc(OC)c1OCCNCC1COc2ccccc2O1 (centres undefined)", "outcome", "inactive"],
  ["O=C(c1cc(O)c(O)c([N+](=O)[O-])c1)c1ccccc1F", "outcome", "inactive"],
  ["CC(=O)SCC[N+](C)(C)C", "outcome", "inactive"],
  ["Nc1ccn([C@@H]2O[C@H](CO)[C@@H](O)[C@@H]2O)c(=O)n1", "outcome", "inactive"]
]}

====

biological target: Endonuclease 4 (Escherichia coli (strain K12)) (UniProt P0A6C1); assay: Counterscreen for APE1 Inhibitors: qHTS Validation Assay for Inhibitors of Endonuclease IV (AID 1708); settings: E. coli endonuclease IV, DNA cleavage fluorescence; series mostly up to 57.1 µM
Results filed as inconclusive are left out. Calls of active or inactive are those of the source. Calls follow the shape of the dose curve; as a rule, active = well fitted inhibition curve with a large enough effect; inconclusive = small, poorly fitted or top-dose-only effect; inactive = no such curve, though single readings can be large or run the other way.
Readout name: outcome

{"columns": ["Molecule", "outcome"],
 "data": [
  ["CN1CCC[C@H]1c1cccnc1", "inactive"],
  ["CN1CCc2ccccc2Cc2[nH]c3ccccc3c2CC1", "inactive"],
  ["COc1ccccc1CNCCCCCCNCCCCCCCCNCCCCCCNCc1ccccc1OC", "inactive"],
  ["NC[C@@H]1O[C@H](C23CC4CC(CC(C4)C2)C3)Cc2c1ccc(O)c2O", "inactive"],
  ["NCCSSCCN", "inactive"],
  ["OC[C@H]1O[C@@H](n2cnc3c(NC4CCCCC4)ncnc32)[C@H](O)[C@@H]1O", "inactive"],
  ["O=c1[nH]c2ccccc2n1CCCN1CCN(C(c2ccccc2)c2ccccc2)CC1", "inactive"],
  ["NCCCCC(=O)O", "inactive"]
]}

Exercise: // lookup outcome for `Ic1ccc(N2CCN(Cc3c[nH]c4ncccc34)CC2)cc1`
Solution: inactive

Exercise: // lookup outcome for `C[C@@H](CN1CCC(Cc2ccccc2)CC1)[C@@H](O)c1ccc(O)cc1`
Solution: inactive

Exercise: // lookup outcome for CN(C)CCC(c1ccc(Cl)cc1)c1ccccn1 (configuration not stated)
Solution: inactive

Exercise: // lookup outcome for `CCCN(CC1CC1)c1nc(C)nc(Nc2c(Cl)cc(Cl)cc2Cl)c1Cl`
Solution: inactive

Exercise: // lookup outcome for `O=C(O)[C@@H]1C[C@@H](C(=O)O)N1`
Solution: inactive

Exercise: // lookup outcome for `O=C1NC(O)=NC1(c1ccccc1)c1ccccc1`
Solution: inactive

Exercise: // lookup outcome for `O=S(=O)(c1cccc2c(I)cccc12)N1CCCNCC1`
Solution: inactive

Exercise: // lookup outcome for `Fc1cccc(/C=N/N=C/c2cccc(F)c2)c1`
Solution: inactive

Exercise: // lookup outcome for `O=C(O)c1cc(=O)c2ccccc2[nH]1`
Solution: inactive

Exercise: // lookup outcome for O=C(O)CNC(=O)C(CS)Cc1ccccc1 (configuration not stated)
Solution: inactive

====

system: MCC-13; test: qHTS assay to identify novel small-molecules to repurpose for Merkel cell carcinoma treatment (AID 1296009); conditions: MCC and control cell lines, CellTiter-Glo viability, 72 h; series mostly up to 46 µM; further: nearly all actives have a fitted effect of over 60% in size
Inconclusive results are not listed. The source made the active and inactive calls. Calls follow the shape of the dose curve; as a rule, active = well fitted inhibition curve with a large enough effect; inconclusive = small, poorly fitted or top-dose-only effect; inactive = flat fitted curve, though single readings scatter.
Outcomes you can answer with include only these: T for active, F for inactive

Study these solved cases before continuing.
{"columns": ["Molecule", "Group"],
 "data": [
  ["CC1(C)S[C@@H]2[C@H](NC(=O)[C@H](N)c3ccccc3)C(=O)N2[C@H]1C(=O)O", "F"],
  ["O=C(OCc1ccccc1)c1ccccc1", "F"],
  ["N=C(N)N", "F"],
  ["COc1cccc2c1C(=O)c1c(O)c3c(c(O)c1C2=O)C[C@@](O)(C(=O)CO)C[C@@H]3O[C@H]1C[C@H](N)[C@H](O[C@@H]2CCCCO2)[C@H](C)O1", "T"]
]}

Exercise: // return assay outcome for C[N+]1(C)[C@@H]2CC(OC(=O)[C@H](CO)c3ccccc3)C[C@H]1[C@@H]1O[C@@H]12 (stereo not given in full)
Solution: F

Exercise: // return assay outcome for `CCCCCCCCCCCCCCCCCC(=O)O`
Solution: F

Exercise: // return assay outcome for CCCCC1C(=O)N(c2ccccc2)N(c2ccc(O)cc2)C1=O (stereo not given)
Solution: T

Exercise: // return assay outcome for `O=C(O)c1ccccc1Nc1cccc(C(F)(F)F)c1`
Solution: F

Exercise: // return assay outcome for `COc1cc2c3cc1Oc1cc(ccc1O)C[C@@H]1c4c(cc(OC)c(O)c4Oc4ccc(cc4)C[C@@H]3N(C)CC2)CC[N+]1(C)C`
Solution: F

Exercise: // return assay outcome for `O=C(CCN1CCN(CCO)CC1)N1c2ccccc2Sc2ccc(C(F)(F)F)cc21`
Solution: F
